molecular target: E. coli DNA topoisomerase IV (Escherichia coli); assay: Gel-based DNA relaxation assay by topoisomerase IV; type: biochemical; settings: IC50 against E. coli topoisomerase IV, relaxation
pIC50: −log10 of the molar value.
quantity.kind: pIC50

Task: So what does the record say about pIC50 for "O=C(O)c1cc(O)c(O)c(OC(=O)c2cc(O)c(O)c(O)c2)c1" ?
Output: ~5.10

---

biological target: E. coli DNA gyrase (Escherichia coli); assay: SDFQ-based DNA gyrase supercoiling inhibition assay; type: biochemical; settings: read-out: IC50 against E. coli DNA gyrase, SDFQ; supercoiling, SDFQ
pIC50: −log10 of the molar value.
quantity.kind: pIC50

Task: Fill blank: measured pIC50 of the compound O=C(Oc1ccccc1)c1cc(O)c(O)c(O)c1 [Phenyl gallate, phenyl gallate] is ____.
Output: < 4.00

---

molecular target: E. coli DNA topoisomerase IV (Escherichia coli, UniProt P20083); assay: SDFQ-based DNA relaxation assay by topoisomerase IV; assay type: biochemical
Sequence (P20083 whole entry): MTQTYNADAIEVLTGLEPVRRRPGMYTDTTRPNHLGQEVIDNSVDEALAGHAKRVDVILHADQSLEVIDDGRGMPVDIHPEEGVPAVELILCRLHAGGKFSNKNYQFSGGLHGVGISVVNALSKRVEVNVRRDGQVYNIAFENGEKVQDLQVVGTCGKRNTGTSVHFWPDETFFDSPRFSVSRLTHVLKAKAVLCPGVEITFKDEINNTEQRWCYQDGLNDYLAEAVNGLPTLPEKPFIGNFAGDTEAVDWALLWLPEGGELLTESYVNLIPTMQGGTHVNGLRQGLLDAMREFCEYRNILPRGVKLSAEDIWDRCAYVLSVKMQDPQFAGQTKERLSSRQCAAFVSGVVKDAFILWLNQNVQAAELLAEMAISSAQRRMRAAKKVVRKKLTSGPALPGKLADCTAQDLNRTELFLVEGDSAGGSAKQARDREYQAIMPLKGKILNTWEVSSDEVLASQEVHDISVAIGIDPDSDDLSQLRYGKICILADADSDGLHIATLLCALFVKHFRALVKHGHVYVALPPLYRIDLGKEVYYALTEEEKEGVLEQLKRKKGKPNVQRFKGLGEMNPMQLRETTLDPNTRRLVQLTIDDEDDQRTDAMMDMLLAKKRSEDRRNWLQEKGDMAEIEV
Sequence (P0AFI2 whole entry, further chain): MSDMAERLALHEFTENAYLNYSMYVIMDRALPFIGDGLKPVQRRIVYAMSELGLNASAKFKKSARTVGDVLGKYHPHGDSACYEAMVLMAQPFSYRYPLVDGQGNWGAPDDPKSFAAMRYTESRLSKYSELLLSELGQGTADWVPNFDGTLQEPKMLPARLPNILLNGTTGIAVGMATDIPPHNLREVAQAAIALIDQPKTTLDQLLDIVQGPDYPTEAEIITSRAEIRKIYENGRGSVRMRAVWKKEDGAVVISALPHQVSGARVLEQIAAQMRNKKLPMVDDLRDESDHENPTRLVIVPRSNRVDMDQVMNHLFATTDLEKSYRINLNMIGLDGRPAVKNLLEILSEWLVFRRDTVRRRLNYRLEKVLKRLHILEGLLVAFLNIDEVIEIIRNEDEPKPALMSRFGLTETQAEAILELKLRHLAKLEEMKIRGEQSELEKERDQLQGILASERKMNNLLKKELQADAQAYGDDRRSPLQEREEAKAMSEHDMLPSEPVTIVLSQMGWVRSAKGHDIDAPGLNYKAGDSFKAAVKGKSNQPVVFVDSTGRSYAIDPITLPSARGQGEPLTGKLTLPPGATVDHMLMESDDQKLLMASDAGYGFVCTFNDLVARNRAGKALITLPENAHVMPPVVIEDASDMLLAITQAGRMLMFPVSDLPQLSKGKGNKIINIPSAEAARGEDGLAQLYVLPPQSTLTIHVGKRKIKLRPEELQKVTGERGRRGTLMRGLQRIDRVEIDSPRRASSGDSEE
Listing of recorded IC50 by entry.
Please state the figure in µM; there is no need to write the unit.

{"columns": ["molecule", "system.under.test", "IC50 [µM]"],
 "data": [
  ["O=C(O)c1cc(O)c(O)c(OC(=O)c2cc(O)c(O)c(O)c2)c1 [Digallic acid, digallic acid]", "E. coli DNA topoisomerase IV (Escherichia coli, UniProt P20083)", 7.3],
  ["CCCCCCCCOC(=O)c1cc(O)c(O)c(O)c1 [Octyl gallate, octyl gallate]", "E. coli DNA topoisomerase IV (Escherichia coli, UniProt P20083)", 41.2]
]}

Task: Record request: IC50 value, item CCCCCCCCCCCCOC(=O)c1cc(O)c(O)c(O)c1 [Dodecyl gallate, dodecyl gallate]
Output: 36.9

---

molecular target: E. coli DNA gyrase (Escherichia coli); experiment: Gel-based DNA gyrase supercoiling inhibition assay; assay type: biochemical; conditions: read-out: IC50 against E. coli DNA gyrase, Gel-based; supercoiling, gel-based
pIC50: −log10 of the molar value.
quantity.kind: pIC50

Task: Quick check: pIC50 of O=C(Oc1ccccc1)c1cc(O)c(O)c(O)c1 [Phenyl gallate, phenyl gallate] ?
Output: < 4.00

---

molecular target: E. coli DNA gyrase (Escherichia coli, UniProt P0AES6); assay: Gel-based DNA gyrase supercoiling inhibition assay; type: biochemical; settings: IC50 against E. coli DNA gyrase, Gel-based, supercoiling
Each entry below lists one item and its recorded pIC50 value.
The read-out pIC50 is expressed as -log10 of concentration in moles per litre.

Use the examples below as a reference point.
{"columns": ["compound", "pIC50"],
 "data": [
  ["CCCCCCCCCCCCOC(=O)c1cc(O)c(O)c(O)c1 [Dodecyl gallate, dodecyl gallate]", 4.82],
  ["CCCCCCCCOC(=O)c1cc(O)c(O)c(O)c1 [Octyl gallate, octyl gallate]", 4.30]
]}

Read the next record carefully.
Task: Please tell me: pIC50 of "O=C(O)c1cc(O)c(O)c(OC(=O)c2cc(O)c(O)c(O)c2)c1" , system E. coli DNA gyrase (Escherichia coli, UniProt P0AES6)?
Output: 5.70

---

target: E. coli DNA gyrase (Escherichia coli, UniProt P0AES6); test: SDFQ-based DNA gyrase supercoiling inhibition assay; type: biochemical
Catalogue of compounds with associated IC50

Please review the following examples before continuing.
{"columns": ["compound", "system.under.test", "IC50"],
 "data": [
  ["CCCCOC(=O)c1cc(O)c(O)c(O)c1 [Butyl gallate, butyl gallate]", "E. coli DNA gyrase (Escherichia coli, UniProt P0AES6)", "> 100 µM"],
  ["CCCCCCCCCCCCOC(=O)c1cc(O)c(O)c(O)c1 [Dodecyl gallate, dodecyl gallate]", "E. coli DNA gyrase (Escherichia coli, UniProt P0AES6)", "13.8 µM"],
  ["CCCCCCCCOC(=O)c1cc(O)c(O)c(O)c1 [Octyl gallate, octyl gallate]", "E. coli DNA gyrase (Escherichia coli, UniProt P0AES6)", "26 µM"]
]}

Task: Can you look up the measured IC50 of O=C(O)c1cc(O)c(O)c(OC(=O)c2cc(O)c(O)c(O)c2)c1 [Digallic acid, digallic acid] for me?
Output: 1.9 µM
